target: Homeobox protein Hox-A13 (Mus musculus) (UniProt Q62424); experiment: disruptors of Hoxa13 oligonucleotide interaction – biochemical, fluorescence polarization, labeled oligonucleotide, primary screen (AID 1185); conditions: Hoxa13:DNA binding, 15 min, higher = more signal, called active from +8 up or from −8 down
Sequence (Q62424 whole entry, looked up): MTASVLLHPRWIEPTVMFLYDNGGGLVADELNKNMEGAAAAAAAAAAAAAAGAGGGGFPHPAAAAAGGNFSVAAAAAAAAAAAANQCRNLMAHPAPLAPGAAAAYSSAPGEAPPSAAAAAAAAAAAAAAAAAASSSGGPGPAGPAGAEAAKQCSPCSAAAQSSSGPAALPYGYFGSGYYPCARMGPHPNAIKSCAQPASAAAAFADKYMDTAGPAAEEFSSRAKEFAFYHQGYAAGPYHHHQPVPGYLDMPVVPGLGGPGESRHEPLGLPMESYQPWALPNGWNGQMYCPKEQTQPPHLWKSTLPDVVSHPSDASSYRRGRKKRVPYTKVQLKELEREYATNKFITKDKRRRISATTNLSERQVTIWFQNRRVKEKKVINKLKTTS
parameter: z-score

| compound | system | experimental value |
| --- | --- | --- |
| COCCOC(=O)N1C(=O)[C@@]2(c3cc(C#CCC(C(=O)OC)C(=O)OC)ccc31)[C@H](C(N)=O)[C@H]1C(=O)O[C@H](c3ccccc3)[C@H](c3ccccc3)N1[C@@H]2c1ccc(O)cc1 | Homeobox protein Hox-A13 (Mus musculus) (UniProt Q62424) | 0.218 |
| CN(C)CCCNC(=O)[C@@]1(C)c2ccccc2C(=O)N(Cc2ccc(OC(F)(F)F)cc2)[C@H]1c1ccc(CO)cc1 | Homeobox protein Hox-A13 (Mus musculus) (UniProt Q62424) | -1.98 |
| C=CCOC(=O)[C@@H]1[C@H]2C(=O)O[C@H](c3ccccc3)[C@H](c3ccccc3)N2[C@H](c2ccc(OCCOC(=O)[C@H]3C[C@H]4C(=O)NCC(=O)N4[C@H]3c3cccc(OCCO)c3)cc2)[C@@]12C(=O)Nc1ccc(I)cc12 | Homeobox protein Hox-A13 (Mus musculus) (UniProt Q62424) | 0.337 |
| COC(=O)[C@@]1(Cc2ccccc2)[C@H]2c3cc(C(=O)N4CCCC4)n(Cc4ccc(OC)c(OC)c4)c3C[C@H]2CN1C(=O)c1ccccc1 | Homeobox protein Hox-A13 (Mus musculus) (UniProt Q62424) | -4.87 |
| CC(C)N1C(=O)c2ccccc2[C@@H](C(=O)NCC(F)(F)F)[C@@H]1c1ccc(CO)cc1 | Homeobox protein Hox-A13 (Mus musculus) (UniProt Q62424) | -1.73 |
| COc1ccc([Si](C)(C)[C@@H]2[C@@H](CC(=O)N3Cc4ccccc4C[C@H]3CO)O[C@]3(C(=O)N(Cc4ccc(N5CCOC5=O)cc4)c4ccccc43)[C@H]2C)cc1 | Homeobox protein Hox-A13 (Mus musculus) (UniProt Q62424) | -1.43 |
| CN(C)CCCNC(=O)[C@@]1(Cc2ccccc2I)c2ccccc2C(=O)N(C2CCCCC2)[C@H]1c1ccc(CO)cc1 | Homeobox protein Hox-A13 (Mus musculus) (UniProt Q62424) | 0.846 |
| CCOC(=O)C1=C[C@@H](C(C)(C)C)N(S(=O)(=O)c2ccc(C)cc2)[C@H]1c1ccc(C#N)cc1 | Homeobox protein Hox-A13 (Mus musculus) (UniProt Q62424) | -0.543 |
| CCC(CC)C(O)C1C=CC2C(=O)N(c3ccccc3)C(=O)C2N1Nc1ccccc1F (stereo not drawn) | Homeobox protein Hox-A13 (Mus musculus) (UniProt Q62424) | -3.13 |
| CN(C)CCCC[C@@H]1NC(=O)[C@@H]2C[C@H](C(=O)NCCCCCN)[C@H](c3cccc(OCCO)c3)N2C1=O | Homeobox protein Hox-A13 (Mus musculus) (UniProt Q62424) | -1.29 |
| CC1=C([C@H](O)CCc2ccccc2)[C@H](CO)n2c(=O)n(-c3ccccc3)c(=O)n2C1 | Homeobox protein Hox-A13 (Mus musculus) (UniProt Q62424) | -2.24 |
| COC(=O)C(CC#Cc1ccc2c(c1)[C@]1(C(=O)N2)[C@H](C(=O)N2CCc3cc(OC)c(OC)cc3C2)[C@H]2C(=O)O[C@H](c3ccccc3)[C@H](c3ccccc3)N2[C@@H]1c1ccccc1OCCO)C(=O)OC | Homeobox protein Hox-A13 (Mus musculus) (UniProt Q62424) | 2.81 |
| C=CCN1C(=O)[C@@]2(O[C@@H](CCn3cc([C@H](O)c4ccccc4)nn3)[C@H]([Si](C)(C)c3ccc(OC)cc3)[C@H]2C)c2cc(N3C(=O)c4cccc5cccc3c45)ccc21 | Homeobox protein Hox-A13 (Mus musculus) (UniProt Q62424) | -3.29 |
